Target: cytochrome P450 3A4 (Homo sapiens)
Sequence (P08684 2-503): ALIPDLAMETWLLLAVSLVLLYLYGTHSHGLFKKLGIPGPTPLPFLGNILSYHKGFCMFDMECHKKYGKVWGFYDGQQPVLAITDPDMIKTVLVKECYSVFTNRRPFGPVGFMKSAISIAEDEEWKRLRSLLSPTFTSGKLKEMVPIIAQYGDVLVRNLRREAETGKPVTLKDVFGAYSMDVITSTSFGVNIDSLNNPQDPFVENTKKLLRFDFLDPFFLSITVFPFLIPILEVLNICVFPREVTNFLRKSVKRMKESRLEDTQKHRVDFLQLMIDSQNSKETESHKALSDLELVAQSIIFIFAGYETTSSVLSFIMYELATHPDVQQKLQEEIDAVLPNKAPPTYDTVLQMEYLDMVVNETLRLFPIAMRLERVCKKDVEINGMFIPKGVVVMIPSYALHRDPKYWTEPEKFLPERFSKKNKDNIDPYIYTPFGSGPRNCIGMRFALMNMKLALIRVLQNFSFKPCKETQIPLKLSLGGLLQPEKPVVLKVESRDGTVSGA
Test: biochemical
Conditions: substrate midazolam; liver microsomes
metric: pIC50
Scale: pIC50 equals -log10([C]), with [C] in mol/L.

Output measured pIC50 for this item: [C-]#[N+]C(c1ccc(F)cc1Cl)S(=O)(=O)c1ccc(C)cc1 (stereo not shown)
7.58

* * *

Target: cytochrome P450 2C9 (Homo sapiens, UniProt P11712)
Sequence (P11712 whole entry): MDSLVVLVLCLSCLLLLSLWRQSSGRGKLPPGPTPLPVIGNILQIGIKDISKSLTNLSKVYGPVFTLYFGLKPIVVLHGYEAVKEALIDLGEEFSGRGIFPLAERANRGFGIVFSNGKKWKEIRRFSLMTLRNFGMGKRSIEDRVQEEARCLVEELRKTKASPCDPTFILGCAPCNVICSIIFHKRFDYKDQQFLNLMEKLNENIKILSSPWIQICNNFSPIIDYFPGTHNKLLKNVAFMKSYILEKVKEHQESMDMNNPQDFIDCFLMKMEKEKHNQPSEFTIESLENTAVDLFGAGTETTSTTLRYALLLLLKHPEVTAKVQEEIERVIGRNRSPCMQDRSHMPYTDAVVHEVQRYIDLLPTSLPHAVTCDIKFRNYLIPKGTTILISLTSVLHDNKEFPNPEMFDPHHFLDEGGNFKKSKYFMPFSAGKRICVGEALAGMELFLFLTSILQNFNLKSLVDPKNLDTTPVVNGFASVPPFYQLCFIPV
Test: biochemical
Conditions: substrate diclofenac; liver microsomes
metric: pIC50
Scale: pIC50 equals -log10([C]), with [C] in mol/L.

Output measured pIC50 for this item: [C-]#[N+]C(c1ccc(F)cc1Cl)S(=O)(=O)c1ccc(C)cc1 (stereo not shown) [I16]
6.84

Data provenance: paper PMC11290450
